Molecular target: Receptor-type tyrosine-protein phosphatase R (Homo sapiens) (UniProt Q15256)
Sequence (Q15256 whole entry, looked up): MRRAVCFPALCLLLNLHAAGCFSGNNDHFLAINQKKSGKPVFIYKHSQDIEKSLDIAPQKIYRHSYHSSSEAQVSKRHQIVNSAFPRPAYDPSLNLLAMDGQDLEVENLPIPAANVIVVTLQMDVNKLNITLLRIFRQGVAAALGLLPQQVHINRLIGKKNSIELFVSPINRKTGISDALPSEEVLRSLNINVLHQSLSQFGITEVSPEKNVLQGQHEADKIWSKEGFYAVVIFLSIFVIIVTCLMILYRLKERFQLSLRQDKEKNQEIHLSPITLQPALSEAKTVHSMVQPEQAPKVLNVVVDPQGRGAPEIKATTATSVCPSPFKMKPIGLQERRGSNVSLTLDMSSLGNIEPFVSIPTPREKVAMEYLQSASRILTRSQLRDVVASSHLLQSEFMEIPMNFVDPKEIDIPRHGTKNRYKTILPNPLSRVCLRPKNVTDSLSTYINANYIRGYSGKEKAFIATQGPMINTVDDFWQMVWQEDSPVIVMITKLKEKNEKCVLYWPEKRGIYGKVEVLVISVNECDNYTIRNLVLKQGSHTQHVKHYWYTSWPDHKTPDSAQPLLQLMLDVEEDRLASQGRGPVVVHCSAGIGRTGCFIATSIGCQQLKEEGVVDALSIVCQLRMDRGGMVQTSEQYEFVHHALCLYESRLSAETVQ
Test: PTPRR phosphatase inhibition, biochemical, recombinant human enzyme, DiFMUP fluorescence (AID 405)
Conditions: DiFMUP fluorescence phosphatase assay
pIC50: −log10 of the molar value.
Value type: pIC50

- CC(=O)c1ccc2c(c1)C1C=CCC1C(C(=O)O)N2 (configuration not stated): 5.17
- Cc1ccc(C)n1-c1ccc(C(=O)O)cc1O: 4.86
- Cc1ccc2nc(-c3cc(N=Cc4cc(C(=O)O)ccc4O)ccc3O)[nH]c2c1: 4.59
- O=C(O)c1ccc(O)c(C=Nc2ccc3oc(-c4ccc(F)cc4Cl)nc3c2)c1: 5.14
- Cc1ccc(C)n1-c1cc(C(=O)O)ccc1O: 5.41
- NC1=NC(=O)/C(=C/C=C/c2ccc([N+](=O)[O-])o2)S1: 5.64
- COc1ccc(-c2nc3cc(N=Cc4cc(C(=O)O)ccc4O)ccc3o2)cc1: 4.80

###

Biological target: Receptor-type tyrosine-protein phosphatase R (Homo sapiens)
Assay: PTPRR phosphatase inhibition, biochemical, recombinant human enzyme, DiFMUP fluorescence (AID 405)
Conditions: DiFMUP fluorescence phosphatase assay, at 50 µM, hits give high values
# reported inhibition; entries follow
Value type: inhibition (%)

• O=C(O)c1ccc(O)c(C=Nc2ccc3oc(-c4cccc(Cl)c4)nc3c2)c1 = 83
• CC(C)(c1ccc(NS(=O)(=O)C(F)(F)F)cc1)c1ccc(C(C)(C)c2ccc(NS(=O)(=O)C(F)(F)F)cc2)cc1 = 91
• O=C(O)c1ccc(O)cn1.OO.[O]=[V] = 95
• CN(N=O)c1ccc(O)c(O)c1 = 33
• O=C1NC(=S)S/C1=C\C=C\c1ccc([N+](=O)[O-])o1 = 100
• O=C(O)c1ccc(O)c(/C=N/N(CCO)C2=NS(=O)(=O)c3ccccc32)c1 = 66
• O=C([O-])c1ccccn1.OO.OO.[K+].[K+].[O]=[V] = 98
• O=C(O)c1ccc(O)c(C=Nc2ccc3oc(-c4cccc(Cl)c4Cl)nc3c2)c1 = 66
• OO.OO.[K+].[O]=[V].c1ccc(-c2ccccn2)nc1 = 98

###

Biological target: Receptor-type tyrosine-protein phosphatase R (Homo sapiens) (UniProt Q15256)
Assay: PTPRR phosphatase inhibition, biochemical, recombinant human enzyme, DiFMUP fluorescence (AID 405)
Conditions: DiFMUP fluorescence phosphatase assay, at 50 µM, hits give high values
Please note: T applies when inhibition is 80% or greater, and F applies otherwise.

* Cc1ccc2oc(-c3cccc(N=Cc4cc(C(=O)O)ccc4O)c3)nc2c1 | F
* O=C(O)c1ccc(O)c(C=Nc2cccc(-c3nc4ccccc4o3)c2)c1 | F
* O=C(O)c1ccc(O)c(N2C(=O)Nc3ccccc3N2O)c1 | F
* O=C(O)c1ccc([O-])cn1.OO.OO.[K+].[K+].[O]=[V] | T
* COc1ccc(OC)c(N=Cc2cc(C(=O)O)ccc2O)c1 | F
* O=C1NC(=S)NC(=O)C1=C/C=C/c1ccco1 | T
* Cn1nc(/C=C/c2ccccc2)nc2c(=O)n(C)c(=O)nc1-2 | F
* CCn1nc(/C=C/c2ccccc2)[n+](=O)c2c(=O)n(C)c(=O)[nH]c21 | F
* CCn1nc(-c2ccc(Cl)cc2)nc2c(=O)n(C)c(=O)nc1-2 | F
* O=C(O)c1ccc(O)c(C=Nc2ccc3oc(-c4ccccc4)nc3c2)c1 | F
